# Study system: Hexose transporter 1 (Plasmodium falciparum) (UniProt O97467)
# Test details: ST_JUDE_LEISH: Cytotoxicity at 2uM final concentration against transgenic Leishmania Mexicana promastigotes LmPfHT that are glucose transport deficient and complemented with the Plasmodium falciparum hexose transporter. Activity is measured by DNA content using SYBR green in vitro
# Format: functional
Each entry below lists one item and its recorded inhibition value.
Reported property: inhibition (%)

Compound	Endpoint unit	Endpoint result
CCCCCCNC(=O)C1Cc2c([nH]c3ccc(C)cc23)C2(CCN(CCc3ccccc3)CC2)N1 (centres undefined)	%	1.61
COc1cc(NC(=O)c2c(-c3c(Cl)cccc3Cl)noc2C)c(OC)cc1Cl	%	4.65
CN1CCN(CCCN(Cc2ccc(-c3ccc(CNCc4ccc5c(c4)OCO5)cc3)cc2)C(=O)Nc2ccccc2)CC1	%	13.7
COc1ccc(-c2ccc3c(-c4cccc(S(C)(=O)=O)c4)cnc(N)c3c2)cc1	%	1
COC(=O)Nc1cc(C(F)(F)F)ccc1N1CCCC(NS(=O)(=O)c2ccc(C(C)(C)C)cc2)C1 (centres undefined)	%	12.2
CC(Nc1ncc(-c2ccsc2)c(-c2nccs2)n1)c1ccc2c(c1)OCCO2 (centres undefined)	%	5.47
CC(C)S(=O)(=O)N1CCN(Cc2ccc3c(c2)nc(NC(=O)c2ccsc2)n3C[C@H](O)c2ccccc2)CC1	%	1
NCCCN(Cc1ccc(Cl)c(Cl)c1)C(=O)Nc1ccc(Cl)c(Cl)c1	%	9.33
CC(=O)Nc1ccc(OCCCN(Cc2ccccc2C(F)(F)F)c2ccc(C(F)(F)F)c(C#N)c2)c(Cl)c1	%	5.68

* * *

# Study system: Glucose transporter (Leishmania mexicana) (UniProt O61059)
# Test details: ST_JUDE_LEISH: Cytotoxicity at 2uM final concentration against transgenic Leishmania Mexicana promastigotes LmGT2 that are glucose transport deficient and complemented with the L. Mexicana glucose transporter 2. Activity is measured by DNA content using SYBR green in vitro
# Type: functional

Cpd smiles	inhibition (%)
CCCSc1nc2c(c(=O)n1CCc1ccccc1)C1(CCCC1)Cc1ccccc1-2	0.24
COc1cc2nc(NCCN3CCOCC3)n3nc(-c4ccccc4)nc3c2cc1OC	5.62
CN(C)c1cc(C(=O)N[C@@H](Cc2ccccc2)[C@H](O)CNC2CCCCC2)cc2[nH]ccc12	7.44
CCn1c(-c2nonc2N)nc2c(-c3cccc(NC(=O)Nc4ccc(C#N)cc4)c3)ncc(OCCCN)c21	2.67
Fc1ccc2[nH]c(-c3cccc(-c4cccc(CNCc5cnn(-c6ccccc6)n5)c4)c3)nc2c1	7.46
C[C@H](NC(=O)c1c(CN2CCC(N3CCCCC3=O)CC2)c(-c2cccs2)nc2ccccc12)C1CCCCC1	0.41
O=C(/C=C/c1ccc(Cl)c(Cl)c1)NCCCCCCN1CCN(C(=O)Nc2ccc(F)c(Cl)c2)CC1	14.1
COc1cc2nc(N3CCC(CNCc4ccc(-c5ccc(C(F)(F)F)cc5)cc4)CC3)nc(N)c2cc1OC	110
Cc1ccc(/C=C/C(=O)NCCCCCN2CCCN(C(=O)Nc3ccc(Cl)c(Cl)c3)CC2)cc1	4.4
COC(=O)c1c(C#N)c(OC)cc(O)c1CSC[C@@H](CN1CCCCC1)Nc1nc(-c2ccc([N+](=O)[O-])cc2)cs1	0.57
O=C(Nc1cccc(CN2CCCN(Cc3ccc(O)cc3)CC2)c1)c1cc2ccccc2o1	1.62
Cc1cccc2nc(-c3ccc(-c4ccc(CN5CCC(CCN6CCCCC6)CC5)cc4)cc3)[nH]c12	-1.41

* * *

# Study system: Solute carrier family 2, facilitated glucose transporter member 1 (Homo sapiens) (UniProt P11166)
# Sequence (P11166 whole entry): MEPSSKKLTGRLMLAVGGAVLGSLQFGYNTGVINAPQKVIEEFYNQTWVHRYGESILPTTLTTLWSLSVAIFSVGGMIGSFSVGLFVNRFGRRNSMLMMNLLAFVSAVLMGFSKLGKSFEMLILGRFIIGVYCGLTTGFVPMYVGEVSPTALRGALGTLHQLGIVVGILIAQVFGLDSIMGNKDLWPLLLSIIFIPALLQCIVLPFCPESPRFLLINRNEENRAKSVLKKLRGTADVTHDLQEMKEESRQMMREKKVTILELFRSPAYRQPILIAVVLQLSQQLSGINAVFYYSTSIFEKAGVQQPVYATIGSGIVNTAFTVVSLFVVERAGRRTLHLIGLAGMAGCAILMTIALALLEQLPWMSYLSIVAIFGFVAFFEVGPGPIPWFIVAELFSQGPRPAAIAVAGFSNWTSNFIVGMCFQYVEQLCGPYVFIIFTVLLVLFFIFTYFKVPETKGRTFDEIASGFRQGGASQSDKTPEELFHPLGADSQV
# Test details: ST_JUDE_LEISH: Cytotoxicity at 2uM final concentration against transgenic Leishmania Mexicana promastigotes LmGLUT1 that are glucose transport deficient and complemented with the human glucose transporter GLUT1. Activity is measured by DNA content using SYBR green in vitro
# Type: functional
Each entry below lists one item and its recorded inhibition value.
Reported property: inhibition (%)

Molecule	Endpoint result
CN1CCCC(CN2CCN(Cc3cccc(-c4ccc(-c5nc6cc(C(F)(F)F)ccc6[nH]5)cc4)c3)CC2)C1 (configuration not stated)	1.06
CCOc1ccc2c(=NN=Cc3ccc(OC)c(OC)c3)cc(C)[nH]c2c1	4.95
Cc1cc(F)ccc1[C@H]1CNCCN1C(=O)N(C)[C@@H](C)c1cc(C(F)(F)F)cc(C(F)(F)F)c1	-0.55
CC(CCCCCC(=O)Nc1ccc(CC(C)NCCc2cccc(Cl)c2)cc1)NCCc1cccc(Cl)c1 (configuration not stated)	12.9
COc1c(Br)cc(Br)cc1-c1ccc(CN2C3CCCC2CCC3)[nH]1	4.44
CO/C(=C\C=C\c1cc2cc(Cl)c(Cl)cc2[nH]1)C(=O)NC1CCN(CCNc2ccccc2)CC1	-1.91
O=C(NCCCCCN1CCC(c2c[nH]c3ccccc23)CC1)Nc1ccc(Cl)c(Cl)c1	-1
COc1ccc2nc(C)cc(NCc3cccc4ccccc34)c2c1	2.2
CC(C)NCc1cccc(-c2ccc(NC(=O)c3ccc(F)cc3)cc2)c1	3.19
Cc1cc(NC(=O)c2coc3cc(F)c(N4CC(C)N(C)C(C)C4)cc23)cnc1-c1ccc(C#N)cc1 (configuration not stated)	0.22
CCN(CC)CCCC(C)Nc1c2ccccc2nc2ccc3ccccc3c12 (configuration not stated)	1.95
COC(=O)c1ccc(CCCNCC(O)c2cccc(C(F)(F)F)c2)cc1 (configuration not stated)	2.51
Cc1ccc(C2=NNC3(S2)C(=O)Nc2ccc(C)cc23)cc1 (configuration not stated)	-2.4
COc1ccc(CN2CCC(NCc3ccc(C(F)(F)F)cc3)CC2)cc1	19.2
CCN(CCCN1CCCCC1)c1cc(C)nc(Nc2ccc(Oc3ccccc3)cc2)n1	5.66
O=C(Nc1ccc(-c2cccc(-c3nc4ccccc4[nH]3)c2)cc1)Nc1ccc2c(c1)OCO2	1.87
c1ccc(COc2ccc(COc3ccc(Cn4ccnc4)cc3)cc2)cc1	2.93
CC(C)Oc1cc2c(cc1NS(=O)(=O)c1ccc(-c3ccc(Cl)s3)cc1F)CCN(C)CC2	39.9
CCN(CC)CCCCNc1cc(-c2[nH]c(-c3c(Cl)cccc3Cl)nc2-c2ccc3cc(OC)ccc3c2)ccn1	0.05
Cc1ccc(C(=O)Nc2ccc(OC3CCN(CCC(C)C)C3)c(Cl)c2)cc1 (configuration not stated)	3.79
FC(F)(F)c1ccc2[nH]c(-c3cccc(-c4ccc(CNCc5cnn(-c6ccccc6)n5)cc4)c3)nc2c1	-0.1
COCCNCc1ccc(-c2cccc(CNc3ccc(OC)cc3)c2)cc1	11.3
O=C(/C=C/c1cccs1)NCC(NCCCNc1cc(=O)c2ccccc2[nH]1)c1cc(Br)cc(Br)c1 (configuration not stated)	4.13
Cc1ccc(C)c2sc(N(CCCn3ccnc3)C(=O)C=Cc3cccs3)nc12	1.74
O=C(Nc1cccc(CN2CCN(C(=O)c3cccc(Cl)c3)CC2)c1)c1ccco1	-4.34
N#Cc1ccc(N/C(=N\c2ccc(-c3ccccc3)cc2)NCCc2c[nH]c3ccccc23)c(O)c1	9.42
CC1(C)OC[C@]2(C)[C@@H](CC[C@]3(C)C4=CC(=O)CCC4CC[C@@H]23)O1 (some centres not stated)	0.57
O=C(Cc1ccccc1)NC1(c2ccccc2)CCN(CCc2c[nH]c3ccc(F)cc23)CC1	-0.99
CS(=O)(=O)N(c1ccccc1)c1cc(C(=O)N[C@@H](Cc2ccccc2)[C@H](O)CNC2CCCCC2)cc(N2CCCC2=O)c1	1.9
CC(=O)c1ccc(N2CCN(C(=O)Nc3ccc(Cl)cc3)CC2)cc1	9.4
Cc1cc2nc(-c3ccc(/C=C/C(=O)NCCc4ccccc4)cc3)[nH]c2cc1C	1.09
COc1ccc(CNC2Cc3ccccc3C2)cc1-c1ccc(S(=O)(=O)NCCN2CCCC2)s1	17.7

* * *

Each entry below lists one item and its recorded inhibition value.
# Study system: Glucose transporter (Leishmania mexicana) (UniProt O61059)
# Test details: ST_JUDE_LEISH: Cytotoxicity at 2uM final concentration against transgenic Leishmania Mexicana promastigotes LmGT2 that are glucose transport deficient and complemented with the L. Mexicana glucose transporter 2. Activity is measured by DNA content using SYBR green in vitro
# Assay type: functional

Compound	Endpoint unit	inhibition
Cc1ccc(Nc2nc(N/N=C/c3cccc([N+](=O)[O-])c3)nc(Nc3ccccc3)n2)c(C)c1	%	-0.87
O=C(Nc1ccc(N2CCCCC2)c(Cl)c1)c1ccco1	%	-1.58
CC(C)CNC(=O)c1cncc(-c2ccc(CNC3Cc4ccccc4C3)cc2)c1	%	-0.51
Cc1cccc2nc(-c3ccc(-c4cccc(NC(=O)C(C)CN(C)C)c4)cc3)[nH]c12 (stereo not given)	%	3.93
FC(F)(F)c1cccc(N=C(S)NN=Cc2ccccn2)c1	%	1.52

* * *

# Study system: Glucose transporter (Leishmania mexicana) (UniProt O61059)
# Test details: ST_JUDE_LEISH: Cytotoxicity at 2uM final concentration against transgenic Leishmania Mexicana promastigotes LmGT2 that are glucose transport deficient and complemented with the L. Mexicana glucose transporter 2. Activity is measured by DNA content using SYBR green in vitro
# Format: functional
Reported property: inhibition (%)

Molecule	Study system	Endpoint result
COc1ccc(Cc2c(Cl)nc3nc(N)nc(N)c3c2C)cc1	Glucose transporter (Leishmania mexicana) (UniProt O61059)	8.71
CCNC(=O)c1cc(S(=O)(=O)N2CCN(c3ccccn3)CC2)cs1	Glucose transporter (Leishmania mexicana) (UniProt O61059)	2.62
Cc1c(F)cc(C(=O)NC2CC2)cc1-c1ccc2c(c1)c(C)nn2S(=O)(=O)c1cccs1	Glucose transporter (Leishmania mexicana) (UniProt O61059)	2.8
COc1cc(SC)ccc1C(=O)N1CC(C)CC(C)C1 (stereo not given)	Glucose transporter (Leishmania mexicana) (UniProt O61059)	9.2
O=C(NC1CCN(c2ccnc3cc(Cl)ccc23)C1)c1ccc(F)cc1 (stereo not given)	Glucose transporter (Leishmania mexicana) (UniProt O61059)	4.18
Cc1ccc(S(=O)(=O)NC2CCN(CCNC(=O)Nc3cc(C)nc4ccccc34)C2)cc1 (stereo not given)	Glucose transporter (Leishmania mexicana) (UniProt O61059)	0.31
O=C(CCc1ccccc1)NC(c1ccc(Cl)cc1)c1ccc2cccnc2c1O (stereo not given)	Glucose transporter (Leishmania mexicana) (UniProt O61059)	3.42
CCN(CC)CCN(CCN(CC)CC)c1ccc(-c2nc3cc(Cl)c(Cl)cc3[nH]2)cc1	Glucose transporter (Leishmania mexicana) (UniProt O61059)	7.03
c1ccc(Oc2ccc(Nc3ccnc4cc(-c5csc(CN6CCCCC6)n5)ccc34)cc2)nc1	Glucose transporter (Leishmania mexicana) (UniProt O61059)	0.89
CCCN(CCCCCCN(CCC)CCc1ccc(O)c(O)c1)CCc1ccc(O)cc1	Glucose transporter (Leishmania mexicana) (UniProt O61059)	10.8
